# assayed.target: T1, human TIGIT-Fc (human, UniProt Q495A1 22-141, limits assumed)
# T1 construct: not shown: Fc; not described
# T1 sequence (looked up): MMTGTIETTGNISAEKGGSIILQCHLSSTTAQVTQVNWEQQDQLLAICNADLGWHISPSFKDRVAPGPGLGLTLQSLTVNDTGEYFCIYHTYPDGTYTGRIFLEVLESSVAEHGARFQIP
# assay.info: CD155 competition ELISA, single point; also: test concentration or dose not given here
Classification by OD (450 nm) follows these ranges: bottom end = under 0.3 OD, midrange = from 0.3 OD up to 0.6 OD, top end = 0.6 OD and over

[[record]]
binder = "TIGIT-SC201 (Fc fusion, VHH-Fc) VHH: EVQLVESGGGLVQPGGSLRLSCAASGFTFSPSWMGWFRQAPGKEREWVASVLRGGYTWYADSVKGRFTISADNSKNTAYLQMNSLKPEDTAVYYCTRDGGFDPWGQGTLVTVSS"
qualitative_label = "midrange"

[[record]]
binder = "TIGIT-SC70 (Fc fusion, VHH-Fc) VHH: EVQLVESGGGLVQPGGSLRLSCAASGRTFSSFAMGWFRQAPGKEREFVAAISGSGEDTYYADSVKGRFTISADNSKNTAYLQMNSLKPEDTAVYYCARWRLDRRQGFYYAMDVWGQGTLVTVSS"
qualitative_label = "top end"

[[record]]
binder = "TIGIT-SC58 (Fc fusion, VHH-Fc) VHH: EVQLVESGGGLVQPGGSLRLSCAASGFTLGYYVMGWFRQAPGKEREFVATINWSGTLTSYADSVKGRFTISADNSKNTAYLQMNSLKPEDTAVYYCARWVGPKYYFDYWGQGTLVTVSS"
qualitative_label = "bottom end"

[[record]]
binder = "TIGIT-SC142 (Fc fusion, VHH-Fc) VHH: EVQLVESGGGLVQPGGSLRLSCAASGFSFDRWAMGWFRQAPGKEREFVAAIGWSGNLKAYADSVKGRFTISADNSKNTAYLQMNSLKPEDTAVYYCASGDGYSMDYFDPWGQGTLVTVSS"
qualitative_label = "top end"

[[record]]
binder = "TIGIT-SC83 (Fc fusion, VHH-Fc) VHH: EVQLVESGGGLVQPGGSLRLSCAASGRTFSDDAMGWFRQAPGKEREFVAAISRSGGNTYYADSVKGRFTISADNSKNTAYLQMNSLKPEDTAVYYCAKWFYYGSGLYTLDVWGQGTLVTVSS"
qualitative_label = "bottom end"

[[record]]
binder = "TIGIT-SC164 (Fc fusion, VHH-Fc) VHH: EVQLVESGGGLVQPGGSLRLSCAASGFTFDRSWMGWFRQAPGKEREFVASVLRGGYTWYADSVKGRFTISADNSKNTAYLQMNSLKPEDTAVYYCTTEGSGWRNWGQGTLVTVSS"
qualitative_label = "midrange"

[[record]]
binder = "TIGIT-SC66 (Fc fusion, VHH-Fc) VHH: EVQLVESGGGLVQPGGSLRLSCAASGTTFSSAAMGWFRQAPGKEREWVASVLRGGYTWYADSVKGRFTISADNSKNTAYLQMNSLKPEDTAVYYCVTDPRQWLGHDYWGQGTLVTVSS"
qualitative_label = "midrange"

[[record]]
binder = "TIGIT-SC152 (Fc fusion, VHH-Fc) VHH: EVQLVESGGGLVQPGGNLRLSCAASGSTFSKHHAMGWFRQAPGKEREFVAGIIRSGTLKAYADSVKGRFTISADNSKNTAYLQMNSLKPEDTAVYYCTRGRAARHNLWYFDLWGQGTLVTVSS"
qualitative_label = "bottom end"

